# TGT: Fatty-acid amide hydrolase 1 (Homo sapiens)
# Sequence (O00519 whole entry): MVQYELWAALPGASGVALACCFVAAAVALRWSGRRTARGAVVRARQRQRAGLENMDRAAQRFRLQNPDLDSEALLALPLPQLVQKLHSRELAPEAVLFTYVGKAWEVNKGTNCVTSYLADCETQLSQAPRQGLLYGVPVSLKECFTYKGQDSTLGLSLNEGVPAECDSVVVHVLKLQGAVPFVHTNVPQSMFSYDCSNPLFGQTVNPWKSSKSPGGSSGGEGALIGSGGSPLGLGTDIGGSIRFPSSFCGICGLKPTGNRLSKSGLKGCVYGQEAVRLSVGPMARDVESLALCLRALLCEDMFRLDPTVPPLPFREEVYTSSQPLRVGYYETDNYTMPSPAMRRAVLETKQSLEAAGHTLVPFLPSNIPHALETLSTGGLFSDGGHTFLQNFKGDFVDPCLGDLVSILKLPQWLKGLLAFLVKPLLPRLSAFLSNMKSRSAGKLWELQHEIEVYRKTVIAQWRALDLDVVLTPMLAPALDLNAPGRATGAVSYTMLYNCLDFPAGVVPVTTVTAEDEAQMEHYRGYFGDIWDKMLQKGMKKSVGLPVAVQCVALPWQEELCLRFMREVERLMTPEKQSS
# ASSAY_TEXT: Inhibition of FAAH (unknown origin) expressed in human HeLa cells using [3H]AEA as substrate after 2 hrs by liquid scintillation counting analysis
# Type: cell-based
ENDPOINT: IC50 (µM)
Give a bare numeral; the unit µM is implied.

So what's the measured IC50 for this one? Cc1cccnc1NC(=O)[C@H](C)c1ccc(-c2ccccc2)c(F)c1
0.7
